Entries and their Ki values follow.
biological target: 5-hydroxytryptamine receptor 3A (Homo sapiens, UniProt P46098); test: Radioligand Binding Assay: The relative affinity of the various compounds for the human 5-HT3 receptor was measured in a radioligand binding assay, using a scintillation proximity assay (SPA) format.
Sequence (P46098 whole entry): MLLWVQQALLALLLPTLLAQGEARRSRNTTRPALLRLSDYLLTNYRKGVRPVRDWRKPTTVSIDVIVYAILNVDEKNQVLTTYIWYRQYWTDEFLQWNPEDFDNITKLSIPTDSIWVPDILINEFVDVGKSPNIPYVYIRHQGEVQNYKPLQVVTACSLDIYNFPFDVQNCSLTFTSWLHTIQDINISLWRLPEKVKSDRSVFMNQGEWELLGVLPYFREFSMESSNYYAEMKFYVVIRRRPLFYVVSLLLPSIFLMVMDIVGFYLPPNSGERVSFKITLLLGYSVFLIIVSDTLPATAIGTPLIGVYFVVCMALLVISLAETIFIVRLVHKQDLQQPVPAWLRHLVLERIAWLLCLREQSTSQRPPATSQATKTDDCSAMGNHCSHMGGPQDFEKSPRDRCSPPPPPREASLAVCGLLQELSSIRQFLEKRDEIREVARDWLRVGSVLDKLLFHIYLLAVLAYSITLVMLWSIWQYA
State the answer as a number, implicitly in nM.

Please review the following examples before continuing.
1) O=C1c2cccc3c2c(nn3Cc2ccccc2)CCN1[C@@H]1CN2CCC1CC2    2
2) CC(C)n1nc2c3c(cccc31)C(=O)N([C@@H]1CN3CCC1CC3)CC2    2
3) CCn1nc2c3c(cccc31)C(=O)N([C@@H]1CN3CCC1CC3)CC2    1
4) O=C1c2cccc3c2c(cn3S(=O)(=O)c2ccccc2)CCN1[C@@H]1CN2CCC1CC2    25
5) O=C1c2cccc3[nH]nc(c23)CCN1[C@@H]1CN2CCC1CC2    4

What does the record list as Ki for O=C1c2cccc3[nH]nc(c23)CCN1[C@H]1CN2CCC1CC2 ? 108

Same again, this time with Cn1nc2c3c(cccc31)C(=O)N([C@@H]1CN3CCC1CC3)CC2 2
